assay: chemical genetic growth profiling, strain panel (AID 1159580);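 also: tested at 20 µM; growth read once vehicle control cultures reached saturation at 30 °C; 1 = growth at the plate median or of vehicle wells; lower values mean less growth of the strain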; conditions: S. cerevisiae deletion strains, growth OD, locus YJL095W, strain BCK1
Screen size: about 5,500 compounds; about 2,000 (36%) were called active. Roughly 18% stayed inconclusive and do not appear here. Rule as the data show it: active = normalized growth mostly below about 0.91 (no sharp cut-off); inconclusive = no clear call, values can overlap the other calls; inactive = mostly above about 0.92. The list shows a part of the results.
Field 'call' accepts true (1) (active), false (0) (inactive)

* CC(C)(CO)[C@@H](O)C(=O)NCCCO | false (0)
* CCc1ccn2cc(Nc3ccccc3Cl)nc2c1 | false (0)
* CC(C)(CCC(C)(C)N1C(=O)c2cccc3cccc(c23)C1=O)N1C(=O)c2cccc3cccc(c23)C1=O | true (1)

Request: Returns: the outcome recorded for CC1OC1P(=O)(O)O (stereo unspecified) in this assay.
Result: false (0)

Request: Subsequent entry: CCCNC1CCc2nc(N)sc2C1 (stereo unspecified)
Result: false (0)

Request: Try this compound next: CCC(C)C(=O)O[C@H]1C[C@H](O)C=C2C=C[C@H](C)[C@H](CC[C@@H](O)C[C@@H](O)CC(=O)O)C21 (stereo partly specified)
Result: false (0)

Request: Same lookup for "COc1cc([C@@H]2c3cc4c(c(O)c3C[C@H]3COC(=O)[C@@H]32)OCO4)cc(OC)c1OC" , please.
Result: false (0)

Request: // repeat for C=C1CCC(OC(C)=O)/C(C)=C/C[C@@H]2[C@@H]1CC2(C)C (stereo partly specified) and report
Result: false (0)

Request: Same again, this time with "O=[N+]([O-])c1ccc(Sc2ssc(=S)c2-c2ccccc2)nc1"
Result: true (1)

Request: Also CC1(C)C2CC(=O)[C@]3(C)C(CC[C@@]4(C)[C@H](c5ccoc5)OC(=O)[C@H]5O[C@]543)[C@@]2(C)C=C[C@@H]1O (stereo partly specified) ?
Result: false (0)
